- experimentalTarget: CD80-Ig (extracellular domain of CD80 fused with the constant region of mouse IgG1 heavy chain) (mouse)
- testDescription: SPR competitive kinetics, peptide 3 × 10^5 nM with 3.2 µM CD28-Ig (competitor) over captured CD80-Ig
metricName: Kd
# output: numeric value plus its unit

Give recorded Kd. Ac-KIEFMYPPPYLDNERSNGTI-NH2 [EL-CD28 (end-blocked L CD28 peptide mimetic)]
2.92 µM
